Tested on: HCC-2998 colon
Test: NCI tumour cell line growth inhibition, 48 h
parameter-measured: TGI

(Q) What value of TGI has been reported for the following compound? CCOP(=O)(OCC)C(Cc1ccc(Cl)cc1)NS(=O)(=O)c1ccc(C)cc1 (stereo unspecified)
(A) > 100 µM

====

Test system: COLO 205 colon
Experiment: NCI tumour cell line growth inhibition, 48 h
Measured TGI of individual entries

Examples with their reported TGI follow.
>  <compound>
O=c1ccn(/C=C/C(O)C(O)CO)c(=O)[nH]1 (centres undefined)

>  <TGI>
> 100 µM

$$$$
>  <compound>
COc1ccc(/C=C/c2cc(OC)c(OCc3ccccc3)c(OC)c2)cc1

>  <TGI>
> 100 µM

$$$$
>  <compound>
C[C@@H](NC(=O)c1ccc(F)cc1)c1ccc2c(c1)CCN2C(=O)C1CCOCC1

>  <TGI>
> 100 µM

$$$$
>  <compound>
COc1cc(-c2ncn(/C=C\c3nnco3)n2)cc(C(F)(F)F)c1

>  <TGI>
> 24.7 µM

$$$$
>  <compound>
O=C(c1cc(Cc2n[nH]c(=O)c3ccccc23)ccc1F)N1CCN(C(=O)C2CC2)CC1

>  <TGI>
> 100 µM

$$$$
>  <compound>
S=C(NCc1ccc2c(c1)OCO2)N1CCN(c2ncnc3c2oc2ccccc23)CC1

>  <TGI>
> 100 µM

$$$$
>  <compound>
O=C(Nc1ccc2[nH]c(C(=O)N3CC(CCl)c4ccc([N+](=O)[O-])cc43)cc2c1)c1cc2ccccc2o1 (centres undefined)

>  <TGI>
> 1100 µM

$$$$
>  <compound>
N#C/C(=C\c1cc2ccc(N3CCC3)cc2oc1=O)C(=O)N(CC(=O)O)CC(=O)O

>  <TGI>
> 100 µM

$$$$
>  <compound>
O=c1n(-c2ccccc2)c(=O)n2c(-c3ccccc3)c(-c3ccccc3)n12

>  <TGI>
> 100 µM

$$$$
>  <compound>
CCCCN(C)C(=O)C1=C(C)NC(C)=C(C(=O)N(C)CCCC)C1

>  <TGI>
> 100 µM

$$$$

(Q) What value of TGI has been reported for the following compound? CNC(=O)CCCNC(=O)CCCC(=O)OC
(A) > 100 µM

(Q) Queued: C[C@H](NC(=O)CNC(=O)CCCCCC(=O)NCC(=O)N[C@@H](C)C(=O)OCc1ccccc1)C(=O)OCc1ccccc1
(A) > 100 µM

(Q) Queued: c1ccc(C2=C(c3ccccc3)Sc3nnc(CCCCCCCCc4nnc5n4NC(c4ccccc4)=C(c4ccccc4)S5)n3N2)cc1
(A) > 100 µM

(Q) Queued: Cc1cc2c(c(=O)o1)C1=S(SC(c3ccccc3)=C1)S2 (centres undefined)
(A) > 100 µM

(Q) Queued: CSc1c(C#N)c(S)n(-c2ccc(Cl)cc2)c(=O)c1C#N
(A) > 100 µM

(Q) Queued: O=C(Cc1ccccc1)C(c1ccccc1)S(=O)(=O)c1ccccc1 (centres undefined)
(A) > 100 µM

(Q) Queued: C[P+]1(c2ccccc2)CCCCC1
(A) > 100 µM

(Q) Queued: CCN1C[C@]2(C)CC[C@H](OC)C34C5C[C@@H]6[C@@H](OC)C[C@@](OC)(C5[C@H]6OCc5ccccc5)C(C13)[C@H](OC(C)=O)[C@@H]42 (some centres undefined)
(A) > 100 µM

(Q) Queued: CCOC(=O)/C=C/C1(CCOC(C)=O)CCCCC1
(A) > 10 µM
